Biological target: T1, rhIL-1RAcP/Fc Chimera (human, UniProt Q9NPH3 21-359)
T1 construct: also called P013_03; P013-03
T1 sequence (looked up): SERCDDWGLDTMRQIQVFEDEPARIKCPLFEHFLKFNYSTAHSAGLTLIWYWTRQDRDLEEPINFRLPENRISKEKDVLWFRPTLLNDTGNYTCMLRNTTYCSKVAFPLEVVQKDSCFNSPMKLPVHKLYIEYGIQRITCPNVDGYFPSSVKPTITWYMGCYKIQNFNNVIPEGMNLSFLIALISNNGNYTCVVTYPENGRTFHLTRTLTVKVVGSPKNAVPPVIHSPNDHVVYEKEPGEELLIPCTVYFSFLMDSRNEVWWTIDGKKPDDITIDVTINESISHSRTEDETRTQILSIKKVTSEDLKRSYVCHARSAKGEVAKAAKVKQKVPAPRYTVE
Test: ELISA, primary supernatant, coated hu-IL-1RAcP-Fc
test-readout: hu-IL1RaP ELISA (OD)
Please reply with the bare figure in OD and do not write the unit itself.

1) P013.S.01.B.B05 (antibody, V domains shown, rabbit monoclonal antibody; also called P013.A.00030.D07) VH: QSLEESGGRLVTPGTPLTLTCTASGFSLSSYYMSWVRQAPGKGLEWVGIISGSASTYYATWAKGRFTISKTSTTVDLKIASPTTEDTATYFCARTHYAAVAGYGYASRLDLWGQGTLVTVSS VL: AIEMTQSPPSLSASVGETVRIRCLASEDIYSGISWYQQKPGKPPTLLIYAASNLESGVPPRFSGSGSGTDYTLTIGGVQAEDAATYYCLGGYSYSNTGPTFGAGTKVEIK
3.3
2) P013.S.01.B.A04 (antibody, V domains shown, rabbit monoclonal antibody; also called P013.A.00085.C03) VH: QEQLEESGGGLVKPGGTLTLTCKASGIDFSSYYYMCWVRQAPGKGLEWIACIFIGYGDVTWYASWAKGRFTISKASSTTVTLQMTSLTAADTATYFCARALGSSGYRVNLWGPGTLVTVSS VL: ALVMTQTPSSVSAAVGGTVTINCQASENIYSSLAWYQQKPGQPPKLLIYDASDLASGVPSRFKGSGSGKEFTLTISDLESDDAATYYCQQGYYSGGTDNDVFGGGTEVVVK
3.4
3) P013.S.01.B.H06 (antibody, V domains shown, rabbit monoclonal antibody; also called P013.A.00086.B03) VH: LEQSGGGGEGGLVKPGGSLELCCKASGFSLSSSYWICWVRQAPGKGLEWIGCIYVGSSGSTYYASWVSGRFTLSRDIDQSTGCLQLNSLTAADTAMYYCARDIYGSTNGYDLWGQGTLVTVSS VL: ALVMTQTPSPVSAAVGGTVTINCQASEDIYSNLAWFQQKPGQPPKLLIYQASKLASGVPSRFSGSGSGTEFTLTISGLQSDDVATYYCLGVGTYISGDGSLDNAFGGGTEVVVK
3.6

INPUT: Given the binder P013.S.01.B.F04 (antibody, V domains shown, rabbit monoclonal antibody; also called P013.A.00133.A12) VH: LEQSGGGAEGGLVKPGGSLELCCKASGFSLSTSYWRCWVRQAPGKGLEWIGCIYAGSSDATYYANWVNGRFTLSRDIDQSTGCLQLNSLTAADTAMYYCASGVGFGYFNLWGQGTLVTVSS VL: ALVMTQTPSPVSAAVGGTVTINCQASEDIYSNLAWFQQKPGQPPKLLIYDASTLASGVPSRFSGSGSGTEFTLTISGLQSDDAATYYCLGVYTHISADNAFGGGTEVVVK , what is its reported hu-IL1RaP ELISA (OD)?
OUTPUT: 3.6

INPUT: Can you look up the measured hu-IL1RaP ELISA (OD) of P013.S.02.B.B03 (antibody, V domains shown, rabbit monoclonal antibody; also called P013.A.00045.F11) VH: QEQLEESGGDLVKPEGSLTLTCTASGFSFSSNYWICWVRQAPGKGLELIACIYTSTGNTWYASWAKGRFTISKTSSTTVTLQMTSLTVADTATYFCARDLLVVTSFNLWGQGTLVTVSS VL: ALVMTQTPSPVSAAVGGTVTINCQASEDIYSNLAWFQQKPGQPPKLLIYGASTLASGVPSRFSGSGSGTEFTLTISGVQSDDAATYYCLGVCTDISTDDLYNAFGGGTELVVK for me?
OUTPUT: 3.8

INPUT: # lookup: hu-IL1RaP ELISA (OD) of P013.S.01.B.F02 (antibody, V domains shown, rabbit monoclonal antibody; also called P013.A.00043.D08) VH: QEQLVESGGGLVQPEGSLTLTCTASGFSFSSNYWMCWVRQAPGKGLEWIACIYTGGSGVTYYASWAKGRFTLSKTSSTTVTLQVTSLTAADTATYFCARDLVVVTSFNLWGQGTLVTVSS VL: ALMMTQTPSPVSAAVGGTVTINCQASEDIYSNLAWYQQKPGQPPKLLIYSASTLASGVPSRFSGSGSGTEFTLTISGVQSDDAATYYCLGVCTDISVDDVYNSFGGGTEVVVK
OUTPUT: 3.4

INPUT: Name the recorded hu-IL1RaP ELISA (OD) for P013.S.01.B.F03 (antibody, V domains shown, rabbit monoclonal antibody; also called P013.A.00025.F02) VH: LEQSGGGAEGGLVKPGGSLELCCKASGFSLGSSYWICWVRQAPGKGLEWIGCIYAGSSGITYYASWVSGRFTLSRDIDQSTGCLQLNSLTAADTAMYYCARDIYASTSGYDLWGQGTLVTVSS VL: ALVMTQTPSPVSAAVGGTVTINCQASEDIYSNLAWFQQKPGQPPKLLIYQASTLASGVPSRFSGSGSGTEFTLTISGLQSDDAAAYYCLGVCTYIGADNTLYNTFGGGTEVVVK .
OUTPUT: 3.4

INPUT: hu-IL1RaP ELISA (OD) lookup needed for P013.S.01.B.D02 (antibody, V domains shown, rabbit monoclonal antibody; also called P013.A.00022.E06) VH: LEQSGGGAEGGLVKPGGSLELCCKASGFSLTTNYWICWVRQAPGKGLEWIGCIYANSVGSTYYASWVNGRFTLSRDIDQSTGCLQLNSLTAADTAMYYCARVDPGYSFDAFDPWGPGTLVTVSS VL: ALVMTQTPSPVSAAVGGTVTINCQASEDIYSNLAWFQQKPGQPPKLLIYRASTLASGVPSRFSGSGSGTEFTLTISALQSDDAATYYCLGVRTYFNTLNNSFGGGTEVVVK , thanks.
OUTPUT: 4

INPUT: # lookup: hu-IL1RaP ELISA (OD) of P013.S.01.B.B04 (antibody, V domains shown, rabbit monoclonal antibody; also called P013.A.00086.E02) VH: QSVEESGGRLVTPGTPLTLTCTVSGIDLDNYAMGWVRQAPGKGLEYIGVISSDGFFYDASWAKGRFTISKASSTTVDLKMTGLTPEDTATYFCARDRGTSTGSLDLWGQGTLVTVSS VL: ALVMTQTPASVSEPVGGTVTIKCQASENIGNGLAWYQQKPGQPPNLLIYGASTLASGVPSRFSGSGYGTEFTLTVSDLESGDAATYYCQCTYWNPDYIGGAFGGGTEVVVT
OUTPUT: 3.5

INPUT: Field request: hu-IL1RaP ELISA (OD) | item: P013.S.01.B.F05 (antibody, V domains shown, rabbit monoclonal antibody; also called P013.A.00087.C06) VH: QSLEESGGRLVTPGGSLTLTCTVSGIDLSNYAMSWVRQAPGKGLEWIGSVISGGSTYYATWAKGRFTISKTSTTVDLKMTSLTTEDTATYFCARGCPGYNGDKYALDLWGPGTVVTVSS VL: AFEMTQTPSSVSEPVGGTVTIKCQASQSIHNYLSWYQQKPGQRPKLLIYRASTLASGVPSRFKGSGSGTEFTLTISGVESADAATYYCQQGATSYDIDNAFGGGTEVVVK
OUTPUT: 3.6
